MEASURED ON: corticotropin releasing factor 1 receptor
ASSAY EXPLANATION: cell-based or functional assay
Ends that are not written are not given here.
READOUT TYPE: CRF1R EC50 (nM)
# output: bare number, implied unit nM

Some solved cases for reference:
Query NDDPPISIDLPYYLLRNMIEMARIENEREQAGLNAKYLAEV-NH2 [SEQ ID NO 267] yields CRF1R EC50 of 1000

// CRF1R EC50 value for ZGPPISIDLPFQLLRKVIEIEKQEKEKQQAANNARLLDTI (C-terminal amide) [SEQ ID NO 278] : 1000

Value of CRF1R EC50 reported for the binder ZGPPISIDVPIYLLRKVIEIEKQEKEKQQAANNARLLARI (C-terminal amide) [SEQ ID NO 379] is 1000

Kindly note the recorded CRF1R EC50 for ZGPPISIDLPFQLLRKAIEIEKQEKEKQQATTNARLLDRV (C-terminal amide) [SEQ ID NO 363] , which is 1000

So, ZGPPISIDLPLQLLRKMIEIEKQEKEKQQAANNALLLDTI (C-terminal amide) [SEQ ID NO 248] ? Its CRF1R EC50 was 1000

Further cases:
Kindly note the recorded CRF1R EC50 for ZGPPISIDLPLWLLRKMIEIEKQEKEKQQAANNRLLLDTI (C-terminal amide) [SEQ ID NO 218] , which is 98.4

The origin of these recorded values is patent US20030148956A1.
